# system: human PI3Kα protein (Homo sapiens, UniProt P42336)
# Construct: purchased Carna Biosciences, Inc; host or cells: baculovirus expression system
# Sequence (P42336 whole entry): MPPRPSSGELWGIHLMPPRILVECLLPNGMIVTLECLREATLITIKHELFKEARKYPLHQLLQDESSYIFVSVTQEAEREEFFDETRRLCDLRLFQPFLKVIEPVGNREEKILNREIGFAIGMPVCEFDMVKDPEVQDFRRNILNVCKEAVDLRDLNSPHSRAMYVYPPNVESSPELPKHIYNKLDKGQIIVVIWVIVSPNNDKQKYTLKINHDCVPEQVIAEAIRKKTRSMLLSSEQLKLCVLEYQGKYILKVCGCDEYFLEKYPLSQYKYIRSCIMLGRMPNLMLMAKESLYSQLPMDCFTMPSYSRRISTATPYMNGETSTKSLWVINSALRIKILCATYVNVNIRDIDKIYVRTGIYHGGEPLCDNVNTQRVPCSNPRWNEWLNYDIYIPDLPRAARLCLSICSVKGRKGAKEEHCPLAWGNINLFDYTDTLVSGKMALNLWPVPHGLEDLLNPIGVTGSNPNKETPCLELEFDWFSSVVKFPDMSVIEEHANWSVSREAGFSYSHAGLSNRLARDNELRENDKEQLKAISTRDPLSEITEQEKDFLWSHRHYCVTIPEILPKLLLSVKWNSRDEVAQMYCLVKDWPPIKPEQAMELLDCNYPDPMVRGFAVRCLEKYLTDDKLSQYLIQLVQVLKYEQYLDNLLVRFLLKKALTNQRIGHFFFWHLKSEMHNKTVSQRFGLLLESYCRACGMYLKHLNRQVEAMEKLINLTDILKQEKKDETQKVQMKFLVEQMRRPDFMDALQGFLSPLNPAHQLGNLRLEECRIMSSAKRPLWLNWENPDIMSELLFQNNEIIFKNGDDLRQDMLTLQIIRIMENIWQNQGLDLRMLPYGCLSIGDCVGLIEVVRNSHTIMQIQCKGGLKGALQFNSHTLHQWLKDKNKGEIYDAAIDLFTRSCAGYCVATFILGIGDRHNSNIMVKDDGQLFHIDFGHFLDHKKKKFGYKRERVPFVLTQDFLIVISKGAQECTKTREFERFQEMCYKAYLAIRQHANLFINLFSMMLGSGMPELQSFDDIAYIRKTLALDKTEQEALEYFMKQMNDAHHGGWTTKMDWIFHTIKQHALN
# Sequence (P27986 whole entry partner): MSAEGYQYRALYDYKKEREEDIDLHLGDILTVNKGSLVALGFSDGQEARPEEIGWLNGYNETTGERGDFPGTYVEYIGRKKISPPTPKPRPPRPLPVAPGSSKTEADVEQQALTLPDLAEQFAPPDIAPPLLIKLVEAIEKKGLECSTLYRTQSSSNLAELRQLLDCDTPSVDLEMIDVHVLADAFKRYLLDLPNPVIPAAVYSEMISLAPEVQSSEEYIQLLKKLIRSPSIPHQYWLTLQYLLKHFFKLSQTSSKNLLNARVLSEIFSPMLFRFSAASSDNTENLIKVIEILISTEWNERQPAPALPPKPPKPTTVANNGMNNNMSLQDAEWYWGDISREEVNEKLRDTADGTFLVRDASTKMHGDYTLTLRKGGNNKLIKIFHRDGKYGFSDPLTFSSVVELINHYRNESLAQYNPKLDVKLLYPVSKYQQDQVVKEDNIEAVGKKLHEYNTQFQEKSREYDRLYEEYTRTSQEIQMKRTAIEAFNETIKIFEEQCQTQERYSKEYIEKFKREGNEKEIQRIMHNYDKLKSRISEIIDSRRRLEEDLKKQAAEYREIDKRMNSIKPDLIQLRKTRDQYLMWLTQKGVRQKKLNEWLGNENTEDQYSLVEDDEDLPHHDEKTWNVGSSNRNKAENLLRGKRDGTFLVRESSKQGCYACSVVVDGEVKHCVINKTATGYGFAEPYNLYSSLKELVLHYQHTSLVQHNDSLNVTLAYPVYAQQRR
# assay procedure: PI3Kα enzyme assay (ADP-Glo)
# Format: biochemical
# condition label: read-out: PI3Kα enzyme inhibitory activity
So I've got a bunch of molecules here, and I need their IC50 values.

Recorded results for 5 molecules are shown here.
[[record]]
smiles = "CC(C)c1cnnc(Nc2ccc3ncc(N4CCC(F)(F)CC4)cc3n2)c1"
meas_value = "1000 to 10000 nM"

[[record]]
smiles = "Cc1nn(C)cc1-c1cnc2ccc(Nc3cc(C4CCOCC4)cnn3)nc2c1"
meas_value = "< 1000 nM"

[[record]]
smiles = "CC(C)c1cnnc(Nc2ccc3ncc(-c4cnn(C[C@@H]5CCC(=O)N5)c4)cc3n2)c1"
meas_value = "< 1000 nM"

[[record]]
smiles = "CC(C)c1cnnc(Nc2ccc3ncc(-n4cnc(CC#N)c4)cc3n2)c1"
meas_value = "< 1000 nM"

[[record]]
smiles = "Cn1cc(-c2cnc3ccc(Nc4cc(C(C)(C)CO[Si](C)(C)C(C)(C)C)cnn4)nc3c2)cn1"
meas_value = "10000 to 50000 nM"


Batch request: IC50 per item, same order as input.
1. COc1ccc(-c2nn(C)cc2-c2cnc3ccc(Nc4cc(C)cnn4)nc3c2)cn1
2. CC(C)c1cnnc(Nc2ccc3ncc(-c4cnn(C5CC5)c4)cc3n2)c1
3. COCCCNc1cnc2ccc(Nc3nnc(C4CCCC4)s3)nc2c1

Result:
1. < 1000 nM
2. < 1000 nM
3. < 1000 nM

###

Provide the reported IC50 of each item.
# system: human PI3Kα protein (Homo sapiens, UniProt P42336)
# Construct: purchased Carna Biosciences, Inc; host or cells: baculovirus expression system
# assay procedure: PI3Kα enzyme assay (ADP-Glo)
# Type: biochemical
# condition label: read-out: PI3Kα enzyme inhibitory activity

Below, each entry is followed by its recorded IC50 result.
[[record]]
smiles = "CC(C)c1cnnc(Nc2ccc3ncc(-c4cn(C)nc4CN4CCN(C)CC4)cc3n2)c1"
meas_value = "< 1000 nM"

[[record]]
smiles = "CC(C)c1cnnc(Nc2ccc3ncc(-c4cnn(-c5cccnc5)c4)cc3n2)c1"
meas_value = "< 1000 nM"

[[record]]
smiles = "CC(C)c1nnc(Nc2ccc3nccc(-c4ccnnc4)c3n2)s1"
meas_value = "< 1000 nM"

[[record]]
smiles = "CC(C)c1nnc(Nc2ccc3nccc(-c4cc[nH]c(=O)c4)c3n2)s1"
meas_value = "< 1000 nM"


Below: the item to evaluate.
Ask: Param readout= IC50; system= human PI3Kα protein (Homo sapiens, UniProt P42336); entry= CC(C)c1cnnc(Nc2ccc3ncc(NC4CNC4)cc3n2)c1 ; returns value.
Result: 1000 to 10000 nM

###

# system: GST fusion human ERK2 protein (Homo sapiens, UniProt P28482)
# Construct: purchased Carna Biosciences, Inc; host or cells: E. coli expression system
# Sequence (P28482 whole entry, the tested form may be a part): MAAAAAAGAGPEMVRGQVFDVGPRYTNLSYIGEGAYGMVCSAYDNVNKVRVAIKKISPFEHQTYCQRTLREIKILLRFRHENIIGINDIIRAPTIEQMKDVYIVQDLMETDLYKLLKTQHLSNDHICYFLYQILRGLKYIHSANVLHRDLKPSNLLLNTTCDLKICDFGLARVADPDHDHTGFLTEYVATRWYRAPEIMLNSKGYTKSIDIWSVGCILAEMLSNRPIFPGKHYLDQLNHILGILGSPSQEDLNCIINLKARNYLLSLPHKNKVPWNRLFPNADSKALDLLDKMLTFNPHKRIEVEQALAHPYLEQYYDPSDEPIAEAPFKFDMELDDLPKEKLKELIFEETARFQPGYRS
# assay procedure: ERK2 enzyme assay (2)
# Format: biochemical
# condition label: ERK2 enzyme assay (2); read-out: ERK2 enzyme inhibitory activity (2)
Exercise: for every item that follows, state its recorded IC50.

Go through the items and report each one's IC50.
1. CC(C)c1cnnc(Nc2ccc3ncc(-c4ccn(C)c(=O)c4)cc3n2)c1
2. CC(C)c1cnnc(Nc2ccc3ncc(-c4cnccn4)cc3n2)c1
3. CC(C)c1cnnc(Nc2ccc3ncc(-c4cnn(C5CN(C)C5)c4)cc3n2)c1
4. CC(C)c1cnnc(Nc2ccc3ncc(-c4cn(C)nc4-c4cccnc4)cc3n2)c1
5. CCN(c1cnnc(Nc2ccc3ncc(-c4cnn(C)c4)cc3n2)c1)C(C)C
6. CC(C)c1cnnc(Nc2ccc3ncc(-c4cnn(C5CCOCC5)c4)cc3n2)c1
7. Cn1cc(-c2cnc3ccc(Nc4cc(CC5CCCCC5)cnn4)nc3c2)cn1

Result:
1: < 1 µM; 2: < 1 µM; 3: < 1 µM; 4: < 1 µM; 5: < 1 µM; 6: < 1 µM; 7: < 1 µM

Respectfully, I request IC50 for each entry included below.
1. Cc1nn(CCCN2CCOCC2)cc1-c1cnc2ccc(Nc3cc(C(C)C)cnn3)nc2c1
2. CC(=O)N1CCCC1c1nnc(Nc2ccc3ncc(-c4cnn(C)c4)cc3n2)s1 (centres unmarked)
3. CC(C)c1cnnc(Nc2ccc3ncc(-c4cnn(Cc5cncnc5)c4)cc3n2)c1
4. CC(C)C(=O)N1CCC(Cn2cc(-c3cnc4ccc(Nc5cc(C(C)C)cnn5)nc4c3)cn2)CC1
5. CCN(CC)c1cnnc(Nc2ccc3ncc(-c4cnn(C)c4)cc3n2)c1
6. CC(C)c1cnnc(Nc2ccc3ncc(-c4cnn(CC(CN5CCOCC5)OCc5ccccc5)c4)cc3n2)c1 (centres unmarked)
7. CC(=O)N1CCN(CCCn2cc(-c3cnc4ccc(Nc5cc(C(C)C)cnn5)nc4c3)cn2)CC1

Result:
< 1 µM
< 1 µM
< 1 µM
< 1 µM
< 1 µM
< 1 µM
< 1 µM

Values compiled from patent US9783536B2.
